- experimentalTarget: corticotropin releasing factor 1 receptor; further: reference of the scale not given here
- test: cell-based or functional assay
Ends that are not written are not given here.
Criterion: CRF1R Emax meeting or surpassing 10%. Met: Met. Not met: Not met.

{"binder": "IVLSLDVPIGLLQILLEMTKADQLAQQAHSNRKLLDIA-NH2 [SEQ ID NO 155]", "groupLabel": "Met"}
{"binder": "SQEPPISLDLTIGLLREVLEMTKADQLAQQAHSNRKLLDIA-NH2 [SEQ ID NO 86]", "groupLabel": "Not met"}
{"binder": "IVLSLDVPIGLLQILLEQEKQEAAREQATTNARILARV-NH2 [SEQ ID NO 125]", "groupLabel": "Not met"}

Exercise: I'd appreciate it if you could say whether ZGPPISIDLPTPLLRKMIEIEKQEKEKQQAANNRLLLDTI (C-terminal amide) [SEQ ID NO 52] has CRF1R Emax at least equal to 10%.
Solution: Met

Exercise: Hi team, for ZGPPISIDVPFQLLRILIEIEKQEKEKQQATTNARILARV (C-terminal amide) [SEQ ID NO 171] , is the recorded CRF1R Emax at or above 10%?
Solution: Met

Exercise: Decide: CRF1R Emax of IVLSLDVPIGLLQILLEQTKADAAREQATTNARILARV-NH2 [SEQ ID NO 108] >= 10%?
Solution: Not met

Exercise: hey, is CRF1R Emax for this one >= 10%? IVLSLDVPIGLLQILLEIEKQEKEKQQAANNRLLLDTI-NH2 [SEQ ID NO 158]
Solution: Met

Exercise: Item ZGPPISIDLPQLLLRKMIEIEKQEKEKQQAANNRLLLDTI (C-terminal amide) [SEQ ID NO 196] with CRF1R Emax of 10% or above?
Solution: Met

Exercise: Please indicate if the recorded CRF1R Emax for ZGPPISIDLPTYLLRKMIEIEKQEKEKQQAANNRLLLDTI (C-terminal amide) [SEQ ID NO 70] meets or exceeds 10%.
Solution: Not met

Exercise: Does the reported CRF1R Emax for ZGPPISIDLSLELLRKMIEQARARAAREQATTNARILARV (C-terminal amide) [SEQ ID NO 156] fall at or above the 10% mark?
Solution: Not met

Exercise: CRF1R Emax >= 10% for ZGPPISIDLPLQLLRKMIEIEKQEKEKQQAANNRLLLDTI (C-terminal amide) [SEQ ID NO 80] ?
Solution: Met

Exercise: Textbook exercise: given the entry IVLSLDVPIGLLQEVLEMARAEQLAQQAHSNRKLMEII-NH2 [SEQ ID NO 165] , state whether its CRF1R Emax is greater than or equal to 10%.
Solution: Met
